- Measurement Target: T1, peptide from the N-terminal coiled-coil region of human ANGPTL3 (hANGPTL3 peptide, SEQ ID NO: 338) (human)
- T1 construct: also called hANGPTL3 shift peptide
- T1 peptide: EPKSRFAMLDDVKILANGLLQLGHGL
- Experiment: SPR, captured mAb, 500 nM peptide, 25C
Endpoint Label: 500 nM hANGPTL3 peptide Bound (RU)
Your reply should be a number followed by the unit it is expressed in.

1) H4H15347P (antibody, human IgG4, V domains shown, H4H prefix: human IgG4 Fc) VH: EVQLVESGGGLVQPGGSLRLSCAASGFTFRNYAMNWARQAPGKGLEWVSGITGSGGATYYADSVKGRFTISRENSKNTLFLQMDTLRAEDTAVYYCAKDRRYFPTSGGPQWGQGTLVTVSS VL: DIVMTQSPLSLPVTPGEPASISCRSSRSLLHSSGYNYLDWYLQKPGQSPQLLLYLGSNRASGVPDRFSGSGSGTYFTLKISRVDAEDVGVYYCMQALQTPWTFGQGTKVEIK: -1 RU

We next turn to a different binder, shown below.
Fill in the blank: the reported 500 nM hANGPTL3 peptide Bound (RU) of H4H15343P (antibody, human IgG4, V domains shown, H4H prefix: human IgG4 Fc) VH: QVQLVESGGGVVQPGRSLRLSCAASGFTFSSYGMHWVRQAPGKGLEWVAVISYAGSNKYYADSVKGRFTISRDNSKNTLYLQMNGLRAEDTAVYYCAKDPYGDYEGVLDYWGQGTLVTVSS VL: DIQMTQSPSSLSASVGDRVTITCQASQDISNYLNWYQQKPGKAPKLLIYDASNLETGVPSRFSGSGSGTDFTFTISSLQPEDIATYYCQQYDHLPITFGQGTRLEIK is ____.
0 RU
